Would you kindly list GI50 for each of these compounds?
Tested on: HOP-62
PROTOCOL_TEXT: NCI tumour cell line growth inhibition, 48 h
Active and inactive are the calls of the source. No stated cut-off is given here; in the data, active = GI50 up to about 1.1 µM and inactive = higher.

Answer for every listed entry: what is its GI50? The entries follow.
1. CC(C)SC(=S)Sc1c(Cl)c(Cl)nc(Cl)c1Cl
2. O=C1C(Br)=Cc2c(Cl)sc(Cl)c21
3. COc1ccc2c(c1)CCC1=C/C(=N\NC(N)=O)CCC12C (stereo not drawn)

5.85 µM (inactive)
7.45 µM (inactive)
> 10 µM (inactive)

----------
Tested on: HCT-15
Would you kindly list GI50 for each of these compounds?

COMPOUND	MEASUREMENT_LABEL	REPORTED
C/C(=N\N)C(CN1CCOCC1)C(c1ccccc1)c1c(O)c2ccccc2oc1=O (centres undefined)	GI50	> 100 µM
CC12OC3(C)OC(=O)C(c4ccccc4)(O1)C3(C)O2 (centres undefined)	GI50	> 100 µM
CON(C(=O)OC(C)(C)C)c1ccccc1	GI50	> 100 µM
COc1cc(OC)cc(-n2c(N)c(C#N)c3ccc([N+](=O)[O-])cc3c2=O)c1	GI50	> 100 µM
O=C(O)CCSC(=O)Nc1ccccc1F	GI50	> 100 µM

Answer for every listed entry: what is its GI50? The entries follow.
1. COc1ccc2c(c1)CCC1=C/C(=N\NC(N)=O)CCC12C (centres undefined)
2. Nc1nc2c(c(-c3ccc(F)cc3)n1)COC/C2=C\c1ccc(F)cc1
3. C[N+](C)(C)/N=C\c1ccc(O)c(O)c1
4. COc1cc(-c2nc(N)c(C#N)c3c2CCS(=O)(=O)c2ccc(C)cc2-3)cc(OC)c1OC

1: > 10 µM; 2: > 100 µM; 3: > 100 µM; 4: > 100 µM

Answer for every listed entry: what is its GI50? The entries follow.
1. Cc1ccc(NC(=O)c2cc(S(=O)(=O)Nc3nc4cccnc4[nH]3)c(SSc3cc(Cl)c(C(=O)Nc4ccc(C)cc4)cc3S(=O)(=O)Nc3nc4cccnc4[nH]3)cc2Cl)cc1
2. CCCC(=O)OC[n+]1cccc(-c2c(COC(=O)NC(C)C)c(COC(=O)NC(C)C)c3n2CCC3)c1
3. COC(=O)NC1C(C)OC(OC2C/C=C(/C)C3C=CC4C(OC5CC(OC6CC(O)C(OC7CC(O)C(OC)C(C)O7)C(C)O6)C(O)C(C)O5)C(C)CC(C)C4C3(C)C(=O)C3=C(O)C4(CC(C)C(CO)=CC4/C=C\2C)OC3=O)CC1(C)[N+](=O)[O-] (centres undefined)
4. CC(=O)Oc1ccc2c(C)cc(=O)oc2c1
5. O=C(CC(=O)N1N=C(N(c2ccccc2)c2ccccc2)CC1c1ccccc1)Nc1ccc(Cl)cc1 (centres undefined)

1. > 100 µM
2. > 93.3 µM
3. 18 µM
4. > 100 µM
5. > 100 µM

Answer for every listed entry: what is its GI50? The entries follow.
1. O=c1c(-c2cccc3ccccc23)c(-c2cccc3ccccc23)c1=O
2. CC1=CCC([C@@](C)(O)CCCC(C)(C)N=C=S)CC1 (some centres undefined)
3. CCn1nc(C)c2c1C(=O)NC(C)C(=O)N2 (centres undefined)
4. CC(C)C(NC(=O)Oc1ccccc1)C(=O)NC1c2c(Br)sc(Br)c2C(=O)C1O (centres undefined)
5. COC(=O)C1(Cc2ccc(C)cc2)Cc2c(C)cccc2C1=O (centres undefined)
6. O=C(O)c1c[nH]c2c(Sc3ccccc3)nccc2c1=O
7. O=C1OC[C@@H]2Cc3cc4c(cc3[C@H](c3ccc5c(c3)OCO5)[C@@H]12)OCO4
8. CCN(C(=O)N[C@H](C(=O)N[C@@H](C)C(=O)OC)C(C)C)c1ccccc1

2.42 µM
18.5 µM
15.1 µM
4.25 µM
14.2 µM
> 100 µM
11 µM
32.4 µM

Answer for every listed entry: what is its GI50? The entries follow.
1. O=C1CSC(c2ccccc2O)N1c1ccc(-c2ccc(-n3c(-c4ccccc4)nc4ccccc4c3=O)cc2)cc1 (centres undefined)
2. Cc1cc(Cl)ccc1NC(=O)/C(=N\NC(C)(C)C)C(C#N)c1nc(-c2ccc([N+](=O)[O-])cc2)cs1 (centres undefined)

33.7 µM
> 100 µM

Every entry's value here was drawn from ChEMBL document CHEMBL1201862.
